assay: recombinant UMI read abundance after kanamycin selection (control-corrected) (log10(CPM+1)); higher = more efficient recombination; extreme values may be limits of the assay; sequences stand for … in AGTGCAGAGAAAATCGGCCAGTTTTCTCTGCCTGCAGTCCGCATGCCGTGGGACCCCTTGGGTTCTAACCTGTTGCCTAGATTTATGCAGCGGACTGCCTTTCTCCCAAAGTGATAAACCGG…AGGTTGGTTTCACT; site = the 11-nt donor
Please go through the items and note down their recombinant UMI read abundance (log10).
Give bare numbers.

Below: 3 sequences and their reported recombinant UMI read abundance (log10).
> print(dat)
                                      chain  observed.result
1  GAATGGACATGGACCGGTTTTCCCGGTAATCCGTATTTGAC (site GATTGGACTGT)            0.743
2  AGTGGGACATGGACCGGTTTTCCCGGTAATCCGTATTTGGC (site AGTGGGACTGC)             2.85
3  TGGGAACCATGGACCGGTTTTCCCGGTAATCCGTATTTGAT (site GGGGAACCTAT)                0

Hi, could you look up recombinant UMI read abundance (log10) for each item in my list?
1. ACTCATCCATGGACCGGTTTTCCCGGTAATCCGTATTTGAC (site ACGCATCCTGT)
2. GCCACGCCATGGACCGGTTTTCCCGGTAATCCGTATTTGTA (site GCCGCGCCTTA)
3. TTAGTCTCATGGACCGGTTTTCCCGGTAATCCGTATTTGAC (site CTAGTATCTGT)
4. GGATAGTCATGGACCGGTTTTCCCGGTAATCCGTATTTGCT (site GGATAGTCTAG)
5. AGCTCACCATGGACCGGTTTTCCCGGTAATCCGTATTTGGG (site AGCTCAGCTCC)

1: 0.525; 2: 0.00414; 3: 0; 4: 3.17; 5: 0.0165

Looking for the measured recombinant UMI read abundance (log10) of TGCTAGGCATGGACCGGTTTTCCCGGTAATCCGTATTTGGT (site TGGTAGGCTAC) , can you help? 0.00942

---

Please go through the items and note down their recombinant barcode read abundance (log10).
assay: recombinant barcode read abundance after kanamycin selection (control-corrected) (log10(CPM+1)); higher = more efficient recombination; sequences stand for … in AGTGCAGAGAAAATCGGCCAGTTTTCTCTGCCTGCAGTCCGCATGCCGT…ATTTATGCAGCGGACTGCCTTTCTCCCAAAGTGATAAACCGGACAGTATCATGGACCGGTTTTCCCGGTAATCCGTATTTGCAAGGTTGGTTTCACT; site = the 11-nt target
Answers are plain numbers.

Below: 3 sequences and their reported recombinant barcode read abundance (log10).
> print(dat)
                                      chain  observed.result
1  TAAGAATGATGGGTTCTAACCTGTTGCCTTC [TAAGAATCTAG_LTGcore_GA_RTGcore_GA] (site TAAGAATCTAG) (LTG core: GA, RTG core: GA)            0.176
2  TCGCGACGTTGGGTTCTAACCTGTTGCCGAG [TCGCGACCTCG_LTGcore_GT_RTGcore_CT] (site TCGCGACCTCG) (LTG core: GT, RTG core: CT)            0.391
3  TCGCGACATTGGGTTCTAACCTGTTGCCGAG [TCGCGACCTCG_LTGcore_AT_RTGcore_CT] (site TCGCGACCTCG) (LTG core: AT, RTG core: CT)           0.0137

Hi, could you look up recombinant barcode read abundance (log10) for each item in my list?
1. GGACACCCTTGGGTTCTAACCTGTTGCCTGG [GGACACCCTAG_LTGcore_CT_RTGcore_CC] (site GGACACCCTAG) (LTG core: CT, RTG core: CC)
2. TAGAGGGGCTGGGTTCTAACCTGTTGCGGGC [TAGAGGGCTCC_LTGcore_GC_RTGcore_GC] (site TAGAGGGCTCC) (LTG core: GC, RTG core: GC)

[0.503, 0.0588]

---

assay: recombinant UMI read abundance after kanamycin selection (control-corrected) (log10(CPM+1)); higher = more efficient recombination; extreme values may be limits of the assay; sequences stand for … in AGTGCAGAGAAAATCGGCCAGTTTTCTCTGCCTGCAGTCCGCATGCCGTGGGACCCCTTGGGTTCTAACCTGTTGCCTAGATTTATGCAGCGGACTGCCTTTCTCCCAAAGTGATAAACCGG…AGGTTGGTTTCACT; site = the 11-nt donor
VALUE_TYPE: recombinant UMI read abundance (log10)
Give bare numbers.

Below: 2 sequences and their reported recombinant UMI read abundance (log10).
> print(dat)
                                      chain                              value.type  observed.result
1  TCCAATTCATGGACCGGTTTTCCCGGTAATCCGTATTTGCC (site TGCAATTCTGG)  recombinant UMI read abundance (log10)                0
2  TTCGCACCATGGACCGGTTTTCCCGGTAATCCGTATTTGGT (site TTCGCACCTAC)  recombinant UMI read abundance (log10)          0.00499

Hi, could you look up recombinant UMI read abundance (log10) for each item in my list?
1. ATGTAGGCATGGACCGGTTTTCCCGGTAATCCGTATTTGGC (site ATGTAGGCTGA)
2. AACCGTTCATGGACCGGTTTTCCCGGTAATCCGTATTTGAT (site AACCGTGCTAT)

1: 2.15; 2: 0.0146

---

assay: recombinant barcode read abundance after kanamycin selection (control-corrected) (log10(CPM+1)); higher = more efficient recombination; sequences stand for … in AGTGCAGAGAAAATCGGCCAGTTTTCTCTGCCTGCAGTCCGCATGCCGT…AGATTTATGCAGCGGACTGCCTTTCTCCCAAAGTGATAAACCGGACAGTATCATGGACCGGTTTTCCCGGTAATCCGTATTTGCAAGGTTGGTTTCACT; site = the 11-nt target
Response key: Fulfilled means recombinant barcode read abundance (log10) >= 0.5; Not fulfilled means recombinant barcode read abundance (log10) < 0.5.

Worked cases, answers included:
> print(dat)
                                      chain          group
1  GCTTCACCTTGGGTTCTAACCTGTTGCCT (site GCTTTACCTAA)  Not fulfilled
2  TAGTCCTCTTGGGTTCTAACCTGTTGCTT (site TAGTCCTCTCA)  Not fulfilled

Does recombinant barcode read abundance (log10) meet or surpass 0.5 for GAAGTGCCTTGGGTTCTAACCTGTTGCCT (site GAAGAGCCTAG) ? Not fulfilled

Does recombinant barcode read abundance (log10) meet or surpass 0.5 for GAGCTAGCTTGGGTTCTAACCTGTTGCGC (site GAGCTAGCTGC) ? Fulfilled

---

assay: recombinant UMI read abundance after kanamycin selection (control-corrected) (log10(CPM+1)); higher = more efficient recombination; extreme values may be limits of the assay; sequences stand for … in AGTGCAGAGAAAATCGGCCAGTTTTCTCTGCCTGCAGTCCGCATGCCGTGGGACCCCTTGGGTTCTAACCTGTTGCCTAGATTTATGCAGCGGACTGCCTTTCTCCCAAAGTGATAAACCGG…AGGTTGGTTTCACT; site = the 11-nt donor
Response key: t means recombinant UMI read abundance (log10) >= 0.01; f means recombinant UMI read abundance (log10) < 0.01.

> print(dat)
                                      chain  group
1  AGCTTAGCATGGACCGGTTTTCCCGGTAATCCGTATTTGTT (site AGCGTAGCTAA)      t
2  AATGTACCATGGACCGGTTTTCCCGGTAATCCGTATTTGCG (site AATGTACCTCG)      t
3  TTAGCTGCATGGACCGGTTTTCCCGGTAATCCGTATTTGCG (site TTAGCTGCTCG)      t
4  CCACGCGCATGGACCGGTTTTCCCGGTAATCCGTATTTGAG (site CCACGCGCTCT)      t
5  TTTTCCCCATGGACCGGTTTTCCCGGTAATCCGTATTTGTA (site TATTCCCCTTA)      f

As a next step, examine the sequence that follows.
Does recombinant UMI read abundance (log10) meet or surpass 0.01 for ACTTATGCATGGACCGGTTTTCCCGGTAATCCGTATTTGCT (site ACTTATGCTAG) ? t

---

assay: recombinant UMI read abundance after kanamycin selection (control-corrected) (log10(CPM+1)); higher = more efficient recombination; extreme values may be limits of the assay; sequences stand for … in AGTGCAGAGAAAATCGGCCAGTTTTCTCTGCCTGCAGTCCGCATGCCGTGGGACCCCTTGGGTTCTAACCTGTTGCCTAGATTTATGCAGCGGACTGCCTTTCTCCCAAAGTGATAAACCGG…AGGTTGGTTTCACT; site = the 11-nt donor
Response key: true means recombinant UMI read abundance (log10) >= 0.01; false means recombinant UMI read abundance (log10) < 0.01.

Worked cases, answers included:
> print(dat)
                                      chain  group
1  CCTATTTCATGGACCGGTTTTCCCGGTAATCCGTATTTGGC (site CCTATTTCTGC)  false
2  CATTTGGCATGGACCGGTTTTCCCGGTAATCCGTATTTGTG (site AATTTGGCTCA)   true
3  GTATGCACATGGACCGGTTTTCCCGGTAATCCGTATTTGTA (site GTATCCACTTA)   true
4  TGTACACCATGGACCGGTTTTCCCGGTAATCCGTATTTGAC (site TGTACAACTGT)  false
5  CCCTTGGCATGGACCGGTTTTCCCGGTAATCCGTATTTGGA (site CGCTTGGCTTC)   true

Does recombinant UMI read abundance (log10) meet or surpass 0.01 for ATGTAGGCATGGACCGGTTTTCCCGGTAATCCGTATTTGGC (site TTGTAGGCTGC) ? true

Does recombinant UMI read abundance (log10) meet or surpass 0.01 for CGCACATCATGGACCGGTTTTCCCGGTAATCCGTATTTGCT (site CGAACATCTAG) ? false

Does recombinant UMI read abundance (log10) meet or surpass 0.01 for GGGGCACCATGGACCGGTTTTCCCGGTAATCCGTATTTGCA (site GGGGCACCTTG) ? false

Does recombinant UMI read abundance (log10) meet or surpass 0.01 for CGCATCTCATGGACCGGTTTTCCCGGTAATCCGTATTTGTG (site CGCATCTCTCA) ? true

Does recombinant UMI read abundance (log10) meet or surpass 0.01 for TGATAGGCATGGACCGGTTTTCCCGGTAATCCGTATTTGGT (site TGATAGGCTAC) ? true
